# experimentNotes: Timed organ biodistribution of [^64Cu]Cu-DOTATATE by ex vivo gamma counting
# Type: in vivo, mice
# conditionDetails: mouse, bone marrow, intravenous, 1.85 MBq, total radioactivity; female C57BL/6 mice, 60 min after injection, median (IQR), N=3-7; read-out: Tissue radioactivity, bone marrow
endpoint: tissue uptake at 1 h (%ID/g)
Just the number in %ID/g, nothing appended.

[in] What value of measured tissue uptake at 1 h is listed for C[C@@H](O)[C@H](NC(=O)[C@@H]1CSSC[C@H](NC(=O)[C@@H](Cc2ccccc2)NC(=O)CN2CCN(CC(=O)O)CCN(CC(=O)O)CCN(CC(=O)O)CC2)C(=O)N[C@@H](Cc2ccc(O)cc2)C(=O)N[C@H](Cc2c[nH]c3ccccc23)C(=O)N[C@@H](CCCCN)C(=O)N[C@@H]([C@@H](C)O)C(=O)N1)C(=O)O [[^64Cu]Cu-DOTATATE, metal not drawn] ?
[out] 2.1
